Numbers sourced from patent US11697646B2.

tested_target: human LPA1 (Homo sapiens, UniProt Q92633)
Construct: expressed in transfected cells; host or cells: Chinese hamster ovary (CHO) cells
Sequence (Q92633 whole entry): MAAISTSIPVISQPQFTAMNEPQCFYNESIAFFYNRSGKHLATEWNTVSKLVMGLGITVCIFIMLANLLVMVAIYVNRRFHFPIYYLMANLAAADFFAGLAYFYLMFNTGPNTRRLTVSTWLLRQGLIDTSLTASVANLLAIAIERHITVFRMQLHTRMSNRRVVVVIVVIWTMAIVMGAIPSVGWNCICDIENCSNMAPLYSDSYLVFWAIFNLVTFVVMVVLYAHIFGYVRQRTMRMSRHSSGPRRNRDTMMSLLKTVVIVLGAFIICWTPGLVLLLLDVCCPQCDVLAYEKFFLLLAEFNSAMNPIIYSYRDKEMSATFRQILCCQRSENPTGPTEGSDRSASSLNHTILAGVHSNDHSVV
test_protocol: LPA1 functional antagonist assay (calcium flux)
Type: cell-based
applied_conditions: CHO cells overexpressing human LPA1; calcium flux induced by 10 nM LPA; read-out: hLPA1 IC50
pIC50: −log10 of the molar value.
assay_endpoint: pIC50

Worked cases, pIC50 given:
Cc1nc(-c2nnn(C)c2CCNC(=O)CC(C)CC(C)(C)C)ccc1O[C@H]1CCC[C@H](C(=O)O)C1 (mixture of isomers) [Example 239]    5.99
Cc1nc(-c2nnn(C)c2CNC(=O)O[C@H](C)c2ccccc2)ccc1O[C@H]1CCC[C@H](C(=O)O)C1 [Example 18]    7.92
Cc1nc(-c2nnn(C)c2CNC(=O)N(C)C(C)C)ccc1O[C@H]1CCC[C@H](C(=O)O)C1 [Example 134]    6.28

[1] Cn1nnc(-c2ccc(O[C@H]3CCC[C@H](C(=O)O)C3)cn2)c1NC(=O)OCC1CCC1 [Example 81]
[2] CCCCOC(=O)NCc1c(-c2ccc(O[C@H]3CCC[C@H](C(=O)O)C3)cn2)nnn1C [Example 5]
[3] CCCCOC(=O)Nc1c(-c2ccc(O[C@H]3CCC[C@H](C(=O)O)C3)c(CC)n2)nnn1C [Example 232]
[4] Cc1nc(-c2nnn(C)c2CNC(=O)OCc2ccccc2)ccc1O[C@@H]1CCC[C@@](F)(C(=O)O)C1 (single isomer, unassigned) [Example 210]
Ask: Ascending by pIC50, please: list the compounds accordingly. Give the labels in the order specified.
Result: 2, 1, 3, 4

----------
tested_target: human LPA1 (Homo sapiens, UniProt Q92633)
Construct: expressed in transfected cells; host or cells: Chinese hamster ovary (CHO) cells
test_protocol: LPA1 functional antagonist assay (calcium flux)
Assay type: cell-based
applied_conditions: CHO cells overexpressing human LPA1; calcium flux induced by 10 nM LPA; read-out: hLPA1 IC50
pIC50: −log10 of the molar value.
assay_endpoint: pIC50

CCCCCCOC(=O)NCc1c(-c2ccc(O[C@H]3CCC[C@H](C(=O)O)C3)c(C)n2)nnn1C    8.52
CCC1(COC(=O)NCc2c(-c3ccc(O[C@H]4CCC[C@H](C(=O)O)C4)c(C)n3)nnn2C)CCC1    7.17
Cn1nnc(-c2ccc(O[C@H]3CCC[C@H](C(=O)O)C3)cn2)c1NC(=O)OCCC1CC1    7.42
Cc1nc(-c2nnn(C)c2CNC(=O)OCC2CC(F)C2)ccc1O[C@H]1CCC[C@H](C(=O)O)C1 (mixture of isomers)    7.32

[A] Cn1nnc(-c2ccc(O[C@H]3CCC[C@H](C(=O)O)C3)cn2)c1NC(=O)OCC1CCCCC1
[B] Cc1nc(-c2nnn(C)c2CNC(=O)NC(C)C(C)C)ccc1O[C@H]1CCC[C@H](C(=O)O)C1 (single isomer, unassigned)
[C] Cc1nc(-c2nnn(C)c2NC(=O)OCC2CCCCC2)ccc1O[C@H]1CCC[C@H](C(=O)O)C1
[D] CC(C)COC(=O)Nc1c(-c2ccc(O[C@H]3CCC[C@H](C(=O)O)C3)cn2)nnn1C
[E] CCCOC(=O)NCc1c(-c2ccc(O[C@H]3CCC[C@H](C(=O)O)C3)c(C(F)F)n2)nnn1C
Ask: Parameters: sort_field (pIC50), sort_dir (desc). Give the labels in the order specified.
Result: C, A, D, B, E
(C: 7.72, A: 7.44, D: 6.66, B: 6.21, E: 5.69)

[A] Cc1nc(-c2nnn(C)c2CNC(=O)N(C)[C@@H](C)c2ccccc2)ccc1O[C@H]1CCC[C@H](C(=O)O)C1
[B] Cc1nc(-c2nnn(C)c2CCNC(=O)Cc2ccccc2)ccc1O[C@H]1CCC[C@H](C(=O)O)C1
Ask: Would you let me know which has the greater pIC50 value, A or B ? Pick one and reply with its label.
Result: B
(B: 6.86, A: 6.56)
